Test: Quantitative highthroughput screen to assess conditional lethalithy of NOMO1 cells grown in Human Plasma-Like Medium with dialyzed fetal bovine serum (HPLM+ds) (AID 1963878); note: nearly all actives have a fitted effect of over 35% in size
Conditions: NOMO1 AML cells in HPLM+ds, CellTiter-Glo viability, 48 h; series mostly up to 45.8 µM
Results filed as inconclusive are left out. Calls of active or inactive are those of the source. Calls come from the whole dose curve; as a rule, active = well fitted cell-killing curve with a large enough effect; inconclusive = small, poorly fitted or top-dose-only effect, or effect the other way; inactive = no such curve, though single readings can be large or run the other way. Bridge positions count the residues as written; N and C are the ends. Square brackets hold non-standard residues; d marks the D form. Peptide text beside a SMILES is read from it. * marks the point of attachment. ξ: configuration not given here. Octanoyl(6-Me) = CCC(C)CCCCC(=O)*; ξThr(3R) = C[C@@H](O)C(N)C(=O)O; dDab = NCC[C@@H](N)C(=O)O; Dab = NCC[C@H](N)C(=O)O
Outcomes: active, inactive

compound: CCCCOc1c(C(=O)c2c(F)cc(C)cc2F)cnc2n[nH]cc12
class-name: inactive
--
compound: CCC(C)CCCCC(=O)N[C@@H](CCN)C(=O)NC(C(=O)N[C@H](CCN)C(=O)N[C@@H]1CCNC(=O)C([C@@H](C)O)NC(=O)[C@@H](CCN)NC(=O)[C@@H](CCN)NC(=O)[C@@H](CC(C)C)NC(=O)[C@H](Cc2ccccc2)NC(=O)[C@H](CCN)NC1=O)[C@@H](C)O (stereo partly drawn) ({Octanoyl(6-Me)}-[Dab][ξThr(3R)][dDab][dDab][Dab]F[dL][dDab][dDab][ξThr(3R)]; lactam 4-C)
class-name: inactive
--
compound: Cc1nc2cnc3ccc(C#Cc4cccnc4)cc3c2n1-c1ccc(C(C)(C)C#N)cc1
class-name: active
--
compound: O=Nc1c(-c2c(O)[nH]c3cc(Br)ccc23)[nH]c2ccccc12
class-name: active
--
compound: CCC1=C(C)CN(C(=O)NCCc2ccc(S(=O)(=O)NC(=O)NC3CCC(C)CC3)cc2)C1=O (centres undefined)
class-name: inactive
--
compound: Oc1ccc2ccccc2c1SSc1c(O)ccc2ccccc12
class-name: inactive
--
compound: CC(C)c1nn(-c2c(Cl)cccc2Cl)c2nc(Cc3ccc(OCCO)cc3)[nH]c(=O)c12
class-name: active
--
compound: CC1=C(C(=O)Nc2cc3cn[nH]c3cc2F)C(c2ccc(C(F)(F)F)cc2)CC(=O)N1 (centres undefined)
class-name: active
--
compound: C=CC[N+]1([C@H]2C[C@H]3[C@@H]4CC[C@H]5C[C@H](O)[C@@H](N6CCOCC6)C[C@]5(C)[C@@H]4CC[C@]3(C)[C@H]2OC(C)=O)CCCC1
class-name: inactive
--
compound: CCCN[C@H]1CCc2nc(N)sc2C1
class-name: inactive
--
compound: CNC(=O)c1ccc(N2C(=S)N(c3ccc(C#N)c(C(F)(F)F)c3)C(=O)C2(C)C)cc1F
class-name: inactive
--
compound: CCN1C[C@H](C)n2c(c(O)c3c(=O)n(Cc4ccc(F)c(Cl)c4)nc(C(=O)NC)c32)C1=O
class-name: active
--
compound: COc1ccc(-c2nc(N3CCOCC3)c3sc(CN(C)c4ncc(C(=O)NO)cn4)cc3n2)cn1
class-name: active
--
compound: CCn1c(-c2nonc2N)nc2cncc(CNC3CCNCC3)c21
class-name: active
--
compound: C=C1c2cccc(O)c2C(O)=C2C(=O)[C@@]3(O)C(O)=C(C(N)=O)C(=O)[C@@H](N(C)C)[C@@H]3[C@@H](O)[C@H]12
class-name: inactive
--
compound: CC(N[C@H]1CCCC[C@H]1NC(=O)c1ccc(Cl)cc1)c1cccc2ccccc12 (some centres undefined)
class-name: active
--
compound: O=C(O)[C@H]1O[C@H](Oc2cc3oc(-c4ccccc4)cc(=O)c3c(O)c2O)[C@H](O)[C@@H](O)[C@H]1O
class-name: inactive
--
compound: CCOC(=O)N1CCC(=C2c3ccc(Cl)cc3CCc3cccnc32)CC1
class-name: inactive
--
compound: Nc1ncnc2c1ncn2[C@@H]1O[C@@H](CO)[C@H](O)[C@H]1O
class-name: inactive
--
compound: CCCCC(CC)COC(=O)C(C#N)=C(c1ccccc1)c1ccccc1 (centres undefined)
class-name: inactive
--
compound: Cc1ccc(C(=O)Nc2ccc(Oc3cc4cnn(C)c4cc3-c3cn[nH]c3)c(F)c2)c(=O)n1-c1ccc(F)cc1
class-name: active
--
compound: Cc1ccc(C(=O)Nc2cccc(C(F)(F)F)c2)cc1-c1ccc2nc(NCCN3CCOCC3)ncc2c1
class-name: active
--
compound: Cc1cc(CN2CCN(c3c(Br)cnc4nc(-c5ccc(N6CCN(C)CC6)cc5)[nH]c34)CC2)no1
class-name: active
--
compound: COC(=O)N[C@H](C(=O)N1CCC[C@@H]1c1ncc(-c2ccc(-c3ccc(-c4cnc([C@@H]5CCCN5C(=O)[C@@H](NC(=O)OC)C(C)C)[nH]4)cc3)cc2)[nH]1)C(C)C
class-name: inactive
--
compound: c1ccc(CNc2nc(N3CCOc4ccccc43)nc3c2CCCC3)cc1
class-name: inactive
--
compound: CCOc1ccc(Cc2cc([C@@H]3O[C@H](CO)[C@@H](O)[C@H](O)[C@@H]3O)ccc2Cl)cc1
class-name: inactive
--
compound: O=C1NC(=O)C(=Cc2cccc(C(F)(F)F)c2)S1
class-name: inactive
--
compound: CC(=O)[C@H]1CC[C@H]2[C@@H]3CCC4=CC(=O)CC[C@]4(C)[C@H]3CC[C@]12C
class-name: inactive
--
compound: Oc1ccc(C2=Cc3ccc(O)cc3OC2)cc1
class-name: active
--
compound: Cc1cc(-c2ncc(CC(=O)Nc3ccc(-c4cnccn4)cn3)cc2C)ccn1
class-name: inactive
--
compound: Cc1ncc(-c2ccnc(Nc3ccc(S(C)(=O)=O)cc3)n2)n1C(C)C
class-name: active
--
compound: Nc1ccn([C@@H]2C(F)=C(CO)[C@@H](O)[C@H]2O)c(=O)n1
class-name: active
--
compound: O[C@@H](COc1cccc2ncccc12)CN1CCN(C2c3ccccc3[C@@H]3[C@H](c4ccccc42)C3(F)F)CC1 (some centres undefined)
class-name: inactive
--
compound: CN(C)CCN1C(=O)c2cccc3cc(N)cc(c23)C1=O
class-name: active
